biological target: human cathepsin S (Homo sapiens, UniProt P25774)
Sequence (P25774 115-331): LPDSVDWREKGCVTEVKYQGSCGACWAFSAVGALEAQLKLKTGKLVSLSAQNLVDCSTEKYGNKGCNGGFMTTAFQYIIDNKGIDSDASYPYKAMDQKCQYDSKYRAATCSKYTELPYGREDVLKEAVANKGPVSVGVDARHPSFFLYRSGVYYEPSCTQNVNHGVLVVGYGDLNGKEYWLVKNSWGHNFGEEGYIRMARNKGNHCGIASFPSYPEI
Each record is given 1.0 if its reported Ki is strictly below 2 nM. Records at or above 2 nM are given 0.0.

COMPOUND | ASSAY TARGET | CATEGORY LABEL
NC(=O)C(=O)C1(NC(=O)[C@H](CC2(F)CCCC2)NC(=O)C2(C(F)(F)F)CC2)CCC1 [Example A25] | human cathepsin S (Homo sapiens, UniProt P25774) | 0.0
CC(C)(C)OC(=O)NC(CC1(F)CCCC1)C(=O)NC1(C(=O)C(N)=O)CC(F)C1 (centres unmarked) [Example C3] | human cathepsin S (Homo sapiens, UniProt P25774) | 1.0
NC(=O)C(=O)C1(NC(=O)[C@H](CC2(F)CCCC2)NC(=O)C2(C(F)(F)F)CC2)CC1 [Example A38] | human cathepsin S (Homo sapiens, UniProt P25774) | 0.0
CCOC(=O)NC(CC1(F)CCCC1)C(=O)NC1(C(=O)C(N)=O)CCC1 (centres unmarked) [Example C6] | human cathepsin S (Homo sapiens, UniProt P25774) | 0.0
CC1(C[C@H](NC(=O)OC(C)(C)C)C(=O)NC2(C(=O)C(N)=O)CCC2)CCCC1 [Example C4] | human cathepsin S (Homo sapiens, UniProt P25774) | 1.0
CCOC(=O)N[C@@H](CC1(F)CCCC1)C(=O)NC1(C(=O)C(N)=O)CCCC1 [Example C7] | human cathepsin S (Homo sapiens, UniProt P25774) | 0.0
CCOC(=O)N[C@@H](CC1(F)CCCC1)C(=O)N[C@]1(C(=O)C(N)=O)C[C@@H](F)C1 [Example C5] | human cathepsin S (Homo sapiens, UniProt P25774) | 0.0
CC(C)OC(=O)N[C@@H](CC1(F)CCCC1)C(=O)NC1(C(=O)C(N)=O)CCC1 [Example C14] | human cathepsin S (Homo sapiens, UniProt P25774) | 0.0
